# measured-on: T1, Human CD137 ECD (human)
# T1 construct: entry includes C-terminal His-tag and biotin acceptor peptide; also called human CD137 extracellular domain; 4-1BB
# assay-summary: Biacore SPR, vs parent H183/L072
Listing: fold change of affinity of selected binders
experimental-readout: fold change of affinity (fold)

INSERT INTO measurements (binder, observed) VALUES
  ('H183/L072 VL S93L (antibody, name in Kabat numbering, V domains shown, Dual-Ig) VH: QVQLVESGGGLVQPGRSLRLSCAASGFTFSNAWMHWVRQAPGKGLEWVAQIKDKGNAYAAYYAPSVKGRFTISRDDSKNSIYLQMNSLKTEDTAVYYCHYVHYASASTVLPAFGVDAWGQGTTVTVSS VL: DIVMTQSPLSLPVTPGEPASISCQASQELVHMNRNTYLHWYQQKPGQAPRLLIYKVSNRFPGVPDRFSGSGSGTDFTLKISRVEAEDVGVYYCAQGTLVPFTFGQGTKLEIK', 1.3),
  ('H183/L072 VL T31P (antibody, name in Kabat numbering, V domains shown, Dual-Ig) VH: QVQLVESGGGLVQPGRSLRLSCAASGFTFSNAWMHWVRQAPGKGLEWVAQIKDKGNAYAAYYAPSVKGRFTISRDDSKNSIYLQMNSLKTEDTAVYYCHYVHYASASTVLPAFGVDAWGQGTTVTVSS VL: DIVMTQSPLSLPVTPGEPASISCQASQELVHMNRNPYLHWYQQKPGQAPRLLIYKVSNRFPGVPDRFSGSGSGTDFTLKISRVEAEDVGVYYCAQGTSVPFTFGQGTKLEIK', 0.4),
  ('H183/L072 VL V51E (antibody, name in Kabat numbering, V domains shown, Dual-Ig) VH: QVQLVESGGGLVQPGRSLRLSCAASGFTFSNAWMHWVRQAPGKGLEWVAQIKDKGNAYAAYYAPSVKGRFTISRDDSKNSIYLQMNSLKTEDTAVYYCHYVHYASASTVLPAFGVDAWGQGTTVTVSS VL: DIVMTQSPLSLPVTPGEPASISCQASQELVHMNRNTYLHWYQQKPGQAPRLLIYKESNRFPGVPDRFSGSGSGTDFTLKISRVEAEDVGVYYCAQGTSVPFTFGQGTKLEIK', 0.6);
